System: rat primary hepatocytes
Assay: MMP assay in rat primary hepatocytes
Conditions: read-out: MMP assays IC50 (µM) Rat Hepatocytes; rat hepatocytes; mean ± SD of three experiments
// IC50 lookup, one value per entry
Just the number please, in µM, no unit attached.

{"COMPOUND": "CCN=C1C=CC(=C(c2ccc(N(CC)CC)cc2)c2ccc(N(CC)CC)cc2)c2ccccc21.Cl [Basic blue 7]", "IC50, µM": 1.53}
{"COMPOUND": "CCCCCCCCCCCCn1cc[n+](C)c1.F[P-](F)(F)(F)(F)F", "IC50, µM": 8.81}

GET /values?readout=IC50&item= `Cc1cc(C(C)(C)C)c(O)c(C)c1Cn1c(=O)n(Cc2c(C)cc(C(C)(C)C)c(O)c2C)c(=O)n(Cc2c(C)cc(C(C)(C)C)c(O)c2C)c1=O`
26.8

// lookup IC50 for Cl.Nc1ccc(/N=N/c2ccccc2)c(N)c1 [C.I. Basic orange 2]
24.9

What value of IC50 has been reported for the following compound? CC(=O)c1ccc2ccc3ccccc3c2c1 [Compound 3-Acetylphenanthrene]
42.2
